target: Gal-4-PPAR (human PPAR LBD fused to GAL4 DNA-binding domain) (Homo sapiens (Human)); experiment: GAL4-PPARG LBD / UAS-luciferase transactivation assay in HEK 293T cells; type: cell-based; conditions: GAL4 transactivation; read-out: EC50 (nM) GAL4
Sequence (P37231 238-503): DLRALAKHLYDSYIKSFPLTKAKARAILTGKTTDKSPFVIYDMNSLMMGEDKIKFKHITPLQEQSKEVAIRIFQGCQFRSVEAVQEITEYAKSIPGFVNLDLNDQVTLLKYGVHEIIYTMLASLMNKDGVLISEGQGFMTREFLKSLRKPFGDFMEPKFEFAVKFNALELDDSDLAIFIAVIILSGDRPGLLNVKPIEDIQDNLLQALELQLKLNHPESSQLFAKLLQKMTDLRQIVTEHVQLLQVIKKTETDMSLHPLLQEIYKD
test_readout: EC50 (nM)
The reply should contain only the number, in nM.

Consider the following illustrative entries.
Cc1c(C)n(Cc2ccc(-c3ccccc3C(=O)O)cc2)c2ccc(C(=O)N[C@@H](C)c3ccc(Cl)cc3Cl)cc12 : 219
Cc1c(C)n(Cc2ccc(-c3ccccc3C(=O)N(C)C)cc2)c2ccc(C(=O)N[C@@H](C)c3cccc(C(C)C)c3)cc12 : 914

Please examine the following record next.
Retrieve EC50 measured for Cc1c(C)n(Cc2ccc(-c3ccccc3C(=O)NS(C)(=O)=O)cc2)c2ccc(C(=O)N[C@@H](C)c3cccc(C(C)C)c3)cc12 and print it.
1650

* * *

target: Gal-4-PPAR (human PPAR LBD fused to GAL4 DNA-binding domain) (Homo sapiens (Human)); experiment: GAL4-PPARG LBD / UAS-luciferase transactivation assay in HEK 293T cells; format: cell-based; conditions: GAL4 transactivation; read-out: EC50 (nM) GAL4
test_readout: log10(EC50) (log10 of the value in nM)
Values are log10 of EC50 in nM.

Cc1c(C)n(Cc2ccc(-c3ccccc3C(=O)O)cc2)c2ccc(C(=O)N[C@@H](C)c3cccc(Br)n3)cc12 : 2.47
Cc1c(C)n(Cc2ccc(-c3ccccc3C(=O)O)cc2)c2ccc(C(=O)N[C@@H](C)c3ccc(C4CC4)cc3)cc12 : 3.38
Cc1c(C)n(Cc2ccc(-c3ccccc3C(=O)O)cc2)c2ccc(C(=O)N[C@H](C)c3cccc(Br)c3)cc12 : 1.84
CNC(=O)c1ccccc1-c1ccc(Cn2c(C)c(C)c3cc(C(=O)N[C@@H](C)c4cccc(C(C)C)c4)ccc32)cc1 : 2.64
Cc1c(C)n(Cc2ccc(-c3ccccc3C(=O)O)cc2)c2ccc(C(=O)N[C@@H](C)c3cc(F)c(F)cc3F)cc12 : 2.30
Cc1c(C)n(Cc2ccc(-c3ccccc3C(=O)O)cc2)c2ccc(C(=O)N[C@@H](C)c3cccc(C4CC4)n3)cc12 : 2.20

Please examine the following record next.
Retrieve log10(EC50) measured for Cc1c(C)n(Cc2ccc(-c3ccccc3C(=O)O)cc2)c2ccc(C(=O)NC(C)c3cncc(Br)c3)cc12 (stereo not shown) and print it.
2.76

* * *

molecular target: Gal-4-PPAR (human PPAR LBD fused to GAL4 DNA-binding domain) (Homo sapiens (Human)); assay: GAL4-PPARG LBD / UAS-luciferase transactivation assay in HEK 293T cells; format: cell-based; settings: HEK-293T, 18 h, read-out: % transactivation at 10 μM (GAL4)
Each entry below carries its recorded activation at 10 µM.
The reply should contain only the number, in %.

Cc1c(C)n(Cc2ccc(-c3ccccc3C(=O)O)cc2)c2ccc(C(=O)N[C@@H](C)c3ccccc3F)cc12 : 35
Cc1c(C)n(Cc2ccc(-c3ccccc3C(=O)O)cc2)c2ccc(C(=O)N[C@@H](C)c3ccccc3Cl)cc12 : 30
Cc1c(C)n(Cc2ccc(-c3ccccc3C(=O)O)cc2)c2ccc(C(=O)N[C@@H](C)c3ccc(F)cc3C(F)(F)F)cc12 : 20

Retrieve activation at 10 µM measured for Cc1c(C)n(Cc2ccc(-c3ccccc3C(=O)O)cc2)c2ccc(C(=O)N[C@H](C)c3c(F)ccc(F)c3F)cc12 and print it.
30

Retrieve activation at 10 µM measured for Cc1c(C)n(Cc2ccc(-c3ccccc3C(=O)O)cc2)c2ccc(C(=O)N[C@@H](C)c3cccc(F)c3Cl)cc12 and print it.
50

Retrieve activation at 10 µM measured for Cc1c(C)n(Cc2ccc(-c3ccccc3C(=O)O)cc2)c2ccc(C(=O)N[C@@H](C)c3cc(F)ccc3C(F)(F)F)cc12 and print it.
20

Retrieve activation at 10 µM measured for Cc1c(C)n(Cc2ccc(-c3ccccc3C(=O)O)cc2)c2ccc(C(=O)N[C@@H](C)c3c(F)ccc(F)c3F)cc12 and print it.
20
